# protocol_notes: chemical genetic growth profiling, strain panel (AID 1159580);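 also: tested at 20 µM; growth read once vehicle control cultures reached saturation at 30 °C; 1 = growth at the plate median or of vehicle wells; lower values mean less growth of the strain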
# conditions: S. cerevisiae deletion strains, growth OD, locus YBR279W, strain paf1
Out of some 5,500 compounds screened, about 2,000 (36%) were called active. About 18% were inconclusive and are not listed. Rule as the data show it: active = normalized growth mostly below about 0.91 (no sharp cut-off); inconclusive = no clear call, values can overlap the other calls; inactive = mostly above about 0.92. Some of the results follow. Where a SMILES comes first, the peptide text is derived from it. Side-chain parts run from the residue outwards. [ ]: non-standard residue; d: D form. The star is where a group is joined. X1 = CCC(C)C(N)C1=NC(C(=O)*)CS1; Orn = NCCC[CH](N)C(=O)O
Possible outcomes: active, inactive

# molecule, class
records = [
    ("c1ccc2c(Cc3c[nH]c4ccccc34)c[nH]c2c1", "active"),
    ("CC(=O)OCC1=C(C(=O)O)N2C(=O)[C@@H](NC(=O)CCCC(N)C(=O)O)C2SC1 (some centres undefined)", "inactive"),
    ("CC(=O)N[C@@H](Cc1c[nH]c2ccccc12)C(=O)O", "inactive"),
    ("CCC(C)C(N)C1=NC(C(=O)NC(CC(C)C)C(=O)NC(CCC(=O)O)C(=O)NC(C(=O)NCCCCC2NC(=O)C(CC(N)=O)NC(=O)C(CC(=O)O)NC(=O)C(Cc3cnc[nH]3)NC(=O)C(Cc3ccccc3)NC(=O)C(C(C)CC)NC(=O)C(CCCN)NC2=O)C(C)CC)CS1 (stereo not drawn) (cyclo(DNK([Ile-Glu-Leu-X1])[Orn]IFH); configuration not given here)", "inactive"),
    ("CCCCc1nc(Cl)c(CO)n1Cc1ccc(-c2ccccc2-c2nn[nH]n2)cc1", "inactive"),
    ("NCCc1cc(O)c(O)cc1O", "inactive"),
    ("CC(=O)NO", "inactive"),
    ("CNC(Cc1c[nH]c2ccccc12)C(=O)O (centres undefined)", "inactive"),
    ("OCc1c[nH]c2ccccc12", "inactive"),
]

---

# protocol_notes: chemical genetic growth profiling, strain panel (AID 1159580);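 also: tested at 20 µM; growth read once vehicle control cultures reached saturation at 30 °C; 1 = growth at the plate median or of vehicle wells; lower values mean less growth of the strain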
# conditions: S. cerevisiae deletion strains, growth OD, locus YNL233W, strain BNI4, stronger effect = lower value
Out of some 5,500 compounds screened, about 2,000 (36%) were called active. Roughly 18% stayed inconclusive and do not appear here. This is one part of the list. Where a SMILES comes first, the peptide text is derived from it. Side-chain parts run from the residue outwards. [ ]: non-standard residue; d: D form. The star is where a group is joined. X1 = CCC(C)C(N)C1=NC(C(=O)*)CS1; Orn = NCCC[CH](N)C(=O)O

# compound, normalized growth
rows = [
    ("CC1(C)C=Cc2cc3ccc(=O)oc3cc2O1", 0.941),
    ("COC1(C)CCC2OC2(C)CCC2C1CC2(C)C (stereo not given)", 1.06),
    ("CC1(C)C(=O)[C@@H]2C[C@@]3(O)C4=CC(=O)O[C@@H](c5ccoc5)[C@]4(C)CCC3[C@@](C)(C2=O)[C@H]1CC(=O)O (stereo not given in full)", 1.02),
    ("CC(=O)[C@@]1(O)CCC2C3CCC4=CC(=O)CC[C@]4(C)C3CC[C@@]21C (stereo not given in full)", 1),
    ("NC1C[C@H]1c1ccccc1 (stereo not given in full)", 0.993),
    ("CC(=O)OC1CCC2(C)C3CC(=O)C4(C)C(CC5OC6(CCC(C)CO6)[C@@H](C)C54)C3CC[C@H]2C1 (stereo not given in full)", 0.989),
    ("CC1=CC(=O)C2=C(C)CC(O)C3C(C)C(=O)OC3C12 (stereo not given)", 1),
    ("O=c1oc2c(O)c(O)cc3c(=O)oc4c(O)c(O)cc1c4c23", 0.594),
    ("c1ccc([C@H]2CN3CCSC3=N2)cc1", 1.01),
    ("CC(=O)O[C@H]1CC[C@]2(C)C3CC[C@@]4(C)C(CC5O[C@@]6(CCC(C)CO6)[C@@H](C)C54)C3CC[C@H]2C1 (stereo not given in full)", 1.01),
    ("CCC(C)C(N)C1=NC(C(=O)NC(CC(C)C)C(=O)NC(CCC(=O)O)C(=O)NC(C(=O)NCCCCC2NC(=O)C(CC(N)=O)NC(=O)C(CC(=O)O)NC(=O)C(Cc3cnc[nH]3)NC(=O)C(Cc3ccccc3)NC(=O)C(C(C)CC)NC(=O)C(CCCN)NC2=O)C(C)CC)CS1 (stereo not drawn) (cyclo(DNK([Ile-Glu-Leu-X1])[Orn]IFH); configuration not given here)", 1.01),
    ("O=C(O)c1cc([N+](=O)[O-])ccc1NCCCc1ccccc1", 1),
    ("CC(=O)NO", 0.939),
    ("CC(=O)OCC(=O)[C@@]1(O)CCC2C3CC[C@@H]4C[C@H](OC(C)=O)CC[C@]4(C)C3C(=O)C[C@@]21C (stereo not given in full)", 0.995),
    ("COc1cnc(NS(=O)(=O)c2ccc(N)cc2)nc1", 1),
    ("Cc1c(NC(=O)c2cccnc2)c(=O)n(-c2ccccc2)n1C", 0.941),
    ("O=C1c2ccccc2C(=O)C1c1ccccc1", 1),
    ("CC(=O)O[C@H]1CC[C@]2(C)C3CC[C@@]4(C)C(CC5O[C@@]6(CCC(C)CO6)[C@@H](C)C54)C3CC[C@@H]2C1 (stereo not given in full)", 1.02),
    ("CN(C)CCc1c[nH]c2ccc(CS(=O)(=O)N3CCCC3)cc12", 0.988),
    ("COc1ccc(C2C(=O)c3ccccc3C2=O)cc1", 1),
    ("CC(=O)OCC(=O)[C@@]1(O)CCC2C3CCC4=CC(=O)CC[C@]4(C)C3[C@@H](O)C[C@@]21C (stereo not given in full)", 1),
    ("CC1=NN(c2ccccc2)C(=O)C1", 0.993),
    ("CC(C)CC1NC(=O)C(CCCN)NC(=O)C(C(C)C)NC(=O)C2CCCN2C(=O)C(Cc2ccccc2)NC(=O)C(CC(C)C)NC(=O)C(CCCN)NC(=O)C(C(C)C)NC(=O)C2CCCN2C(=O)C(Cc2ccccc2)NC1=O (stereo not given) (cyclo(FPV[Orn]LFPV[Orn]L); configuration not given here)", 0.982),
    ("CC(=O)c1cc2c(cc1O)OC(C)(C)C=C2", 0.991),
    ("CN1C(=O)CCS(=O)(=O)C1c1ccc(Cl)cc1 (stereo not given)", 1.02),
    ("O=C(OC[C@H]1O[C@H](OC(=O)c2cc(O)c(O)c(OC(=O)c3cc(O)c(O)c(O)c3)c2)[C@H](OC(=O)c2cc(O)c(O)c(OC(=O)c3cc(O)c(O)c(O)c3)c2)[C@@H](OC(=O)c2cc(O)c(O)c(OC(=O)c3cc(O)c(O)c(O)c3)c2)[C@@H]1OC(=O)c1cc(O)c(O)c(OC(=O)c2cc(O)c(O)c(O)c2)c1)c1cc(O)c(O)c(OC(=O)c2cc(O)c(O)c(O)c2)c1", 0.0934),
    ("CC(=O)O[C@@H]1CC[C@]2(C)C3CC[C@]4(C)C(=O)CCC4C3CC[C@H]2C1 (stereo not given in full)", 0.941),
    ("CCCc1nc2c(C)cc(-c3nc4ccccc4n3C)cc2n1Cc1ccc(-c2ccccc2C(=O)O)cc1", 0.985),
    ("COc1ccc2c(c1)[C@]13CCCC[C@H]1[C@H](C2)N(C)CC3", 0.982),
    ("NC1CC1c1ccccc1 (stereo not given)", 1.02),
    ("CC(=O)OCC1=C(C(=O)O)N2C(=O)[C@@H](NC(=O)CCCC(N)C(=O)O)C2SC1 (stereo not given in full)", 1.02),
    ("CC(=O)O[C@H]1CC[C@]2(C)C3CC(=O)[C@]4(C)C(C(C)=O)=CCC4C3CC[C@H]2C1 (stereo not given in full)", 0.988),
    ("C[C@]12CCC(=O)C=C1CCC1C2C(=O)C[C@@]2(C)C1CC[C@]2(O)C(=O)CO (stereo not given in full)", 0.994),
    ("CC(=O)CC1CCCCN1 (stereo not given)", 1.02),
    ("C#CC1(O)CCC2C3CCC4=CC(=O)CCC4(C)C3CCC21C (stereo not given)", 1.02),
]
